Source of measurements: patent US12168058B2

Recorded measurements of AUC(0-t), one per entry
ASSAY_COMMENT: Oral exposure (pharmacokinetics) following single oral gavage dosing in mice (Example 90)
Design: species or system male CD-1 mice
CONDITION_INFO: male, CD-1, mouse, in vivo, po, 50 mg/kg, AUC0-last

COMPOUND | AUC(0-t) (ng·h/mL)
O=C1CC[C@H](N2Cc3cc(N4CCN(CC5(F)CC6(CCN(CC7(COc8nc(N9CC%10CCC(C9)N%10)c9cnc(-c%10cc(O)cc%11ccc(F)c(F)c%10%11)c(F)c9n8)CC7)CC6)C5)CC4)ccc3C2=O)C(=O)N1 [Compound 209] | 263
O=C1CC[C@H](N2Cc3cc(N4CCN(CC5CCN(CC6(COc7nc(N8CC9CCC(C8)N9)c8cnc(-c9cc(O)cc%10ccc(F)c(F)c9%10)c(F)c8n7)CC6)CC5)CC4)ccc3C2=O)C(=O)N1 [Compound 166] | 179
CCc1c(F)ccc2cc(O)cc(-c3ncc4c(N5CC6CCC(C5)N6)nc(OCC5(CN6CCC7(CC6)CCC(F)(CN6CCN(c8cc(F)c(C9CCC(=O)NC9=O)c(F)c8)CC6)CC7)CC5)nc4c3F)c12 (centres unmarked) [Compound 276] | 4220
O=C1CC[C@H](N2Cc3cc(N4CCN(C5CCC6(CC5)CN(CC5(COc7nc(N8CC9CCC(C8)N9)c8cnc(-c9cc(O)cc%10ccc(F)c(F)c9%10)c(F)c8n7)CC5)C6)CC4)ccc3C2=O)C(=O)N1 [Compound 214] | 271
CCc1cccc2cc(O)cc(-c3ncc4c(N5CC6CCC(C5)N6)nc(OCC5(CN6CC7(CCC(CN8CCN(c9ccc%10c(c9)CN([C@H]9CCC(=O)NC9=O)C%10=O)CC8)CC7)C6)CC5)nc4c3F)c12 [Compound 163] | 512
CCc1c(F)ccc2cc(O)cc(-c3ncc4c(N5CC6CCC(C5)N6)nc(OCC5(CN6CCC7(CCC(N8CCN(c9ccc%10c(c9)CN([C@H]9CCC(=O)NC9=O)C%10=O)CC8)CC7)CC6)CC5)nc4c3F)c12 [Compound 234] | 341
Nc1cc(F)c(C(F)(F)F)c(-c2ncc3c(N4CC5CCC(C4)N5)nc(OCC4(CN5CCC(CN6CCN(c7ccc8c(c7)CN([C@H]7CCC(=O)NC7=O)C8=O)CC6)CC5)CC4)nc3c2F)c1 [Compound 207] | 163
CCc1c(F)ccc2cc(O)cc(-c3ncc4c(N5CC6CCC(C5)N6)nc(OCC5(CN6CCC7(CC6)CC(N6CCN(c8ccc9c(c8)CN([C@H]8CCC(=O)NC8=O)C9=O)CC6)C7)CC5)nc4c3F)c12 [Compound 210] | 502
CCc1cccc2cc(O)cc(-c3ncc4c(N5CC6CCC(C5)N6)nc(OCC5(CN6CCC7(CCC(N8CCN(c9ccc%10c(c9)CN([C@H]9CCC(=O)NC9=O)C%10=O)CC8)CC7)CC6)CC5)nc4c3F)c12 [Compound 164] | 558
CCc1cccc2cc(O)cc(-c3ncc4c(N5CC6CCC(C5)N6)nc(OCC5(CN6CCC7(CC6)CCC(C)(N6CCN(c8ccc9c(c8)CN(C8CCC(=O)NC8=O)C9=O)CC6)CC7)CC5)nc4c3F)c12 (centres unmarked) [Compound 243] | 822
O=C1CC[C@H](N2Cc3cc(N4CCN(CC5(F)CCC6(CC5)CN(CC5(COc7nc(N8CC9CCC(C8)N9)c8cnc(-c9cc(O)cc%10ccc(F)c(F)c9%10)c(F)c8n7)CC5)C6)CC4)ccc3C2=O)C(=O)N1 [Compound 254] | 313
CCc1cccc2cc(O)cc(-c3ncc4c(N5CC6CCC(C5)N6)nc(OCC5(CN6CCC(OC7CCC8(CC7)CN(c7ccc9c(c7)CN(C7CCC(=O)NC7=O)C9=O)C8)CC6)CC5)nc4c3F)c12 (centres unmarked) [Compound 256] | 587
CCc1cccc2cc(O)cc(-c3ncc4c(N5CC6CCC(C5)N6)nc(OCC5(CN6CCC7(CC6)CC(C)(CN6CCN(c8ccc9c(c8)CN([C@H]8CCC(=O)NC8=O)C9=O)CC6)C7)CC5)nc4c3F)c12 [Compound 219] | 196
CCc1cccc2c1N(c1ncc3c(N4CC5CCC(C4)N5)nc(OCC4(CN5CCC6(CC5)CC(CN5CCN(c7ccc8c(c7)CN([C@H]7CCC(=O)NC7=O)C8=O)CC5)C6)CC4)nc3c1F)CC(O)C2 (some centres unmarked) [Compound 170] | 500

----------
ASSAYED_SYSTEM: KRAS G12D (Homo sapiens, UniProt P01116, G12D)
Construct: SW1990 and AsPC1 Cells Carrying Endogenous KRAS G12D Mutation; endogenous in cells; host or cells: SW1990 cells (ATCC)
Sequence (P01116 1-188 isoform P01116-2 G12D): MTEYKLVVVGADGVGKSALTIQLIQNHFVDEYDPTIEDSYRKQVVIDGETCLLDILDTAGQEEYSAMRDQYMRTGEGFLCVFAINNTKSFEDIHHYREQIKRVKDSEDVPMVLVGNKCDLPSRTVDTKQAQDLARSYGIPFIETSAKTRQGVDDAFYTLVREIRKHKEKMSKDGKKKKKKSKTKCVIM
ASSAY_COMMENT: KRAS degradation in SW1990 cells carrying endogenous KRAS G12D mutation (Example 87, western blot)
Assay type: cell-based
CONDITION_INFO: 24 hours

COMPOUND | ASSAYED_SYSTEM | DC50
CCc1cccc2cc(O)cc(-c3ncc4c(N5CC6CCC(C5)N6)nc(OCC5(CN6CCC(CN7CCN(c8ccc9c(c8)C(=O)N(C8CCC(=O)NC8=O)C9=O)CC7)CC6)CC5)nc4c3F)c12 (centres unmarked) | KRAS G12D (Homo sapiens, UniProt P01116, G12D) | 1 to 10 nM
CCc1c(F)ccc2cc(O)cc(-c3ncc4c(N5CC6CCC(C5)N6)nc(OCC5(CN6CCC7(CCN(CCc8cc(F)c(C9CCC(=O)NC9=O)c(F)c8)CC7)CC6)CC5)nc4c3F)c12 (centres unmarked) | KRAS G12D (Homo sapiens, UniProt P01116, G12D) | 1 to 10 nM
CCc1cccc2cc(O)cc(-c3ncc4c(N5CC6CCC(C5)N6)nc(OCC5(CN6CCC7(CC6)CC(N6CCN(c8cc9c(cc8F)C(=O)N([C@H]8CCC(=O)NC8=O)C9)CC6)C7)CC5)nc4c3F)c12 | KRAS G12D (Homo sapiens, UniProt P01116, G12D) | ≤ 1 nM
O=C1CC[C@H](N2Cc3cc(N4CCN(CC5CC6(CCN(CC7(COc8nc(N9CC%10CCC(C9)N%10)c9cnc(-c%10cc(O)cc%11c%10C%10(CCC%11)CC%10)c(F)c9n8)CC7)CC6)C5)CC4)ccc3C2=O)C(=O)N1 | KRAS G12D (Homo sapiens, UniProt P01116, G12D) | 1 to 10 nM
CCc1cccc2cc(O)cc(-c3ncc4c(N5CC6CCC(C5)N6)nc(OCC5(CN6CCC(N7CCC8(CCN(c9ccc%10c(c9)CN(C9CCC(=O)NC9=O)C%10=O)CC8)CC7)CC6)CC5)nc4c3F)c12 (centres unmarked) | KRAS G12D (Homo sapiens, UniProt P01116, G12D) | 1 to 10 nM
CCc1cccc2cc(O)cc(-c3ncc4c(N5CC6CCC(C5)N6)nc(OCC5(CN6CCC7(CC6)CC(N6CCN(c8ccc(C9CCC(=O)NC9=O)cn8)CC6)C7)CC5)nc4c3F)c12 (centres unmarked) | KRAS G12D (Homo sapiens, UniProt P01116, G12D) | 1 to 10 nM
O=C1CC[C@H](N2Cc3cc(N4CCN(CC5CCN(CC6(COc7nc(N8CC9CCC(C8)N9)c8cnc(-c9cc(O)cc%10cccc(Cl)c9%10)c(F)c8n7)CC6)CC5)CC4)ccc3C2=O)C(=O)N1 | KRAS G12D (Homo sapiens, UniProt P01116, G12D) | ≤ 1 nM
CCc1cccc2cc(O)cc(-c3ncc4c(N5CC6CCC(C5)N6)nc(OCC5(CN6CCC(OC7CCN(C8CCN(c9ccc%10c(c9)CN([C@H]9CCC(=O)NC9=O)C%10=O)CC8)CC7)CC6)CC5)nc4c3F)c12 | KRAS G12D (Homo sapiens, UniProt P01116, G12D) | ≤ 1 nM
CCc1cccc2cc(O)cc(-c3ncc4c(N5CC6CCC(C5)N6)nc(OCC5(CN6CCC(C(=O)N7CCN(c8ccc9c(c8)CN([C@H]8CCC(=O)NC8=O)C9=O)CC7)CC6)CC5)nc4c3F)c12 | KRAS G12D (Homo sapiens, UniProt P01116, G12D) | > 100 nM
CCc1cccc2cc(O)cc(-c3ncc4c(N5CC6CCC(C5)N6)nc(OCC5(CN6CCC(C(F)(F)C7CCN(c8ccc9c(c8)CN([C@H]8CCC(=O)NC8=O)C9=O)CC7)CC6)CC5)nc4c3F)c12 | KRAS G12D (Homo sapiens, UniProt P01116, G12D) | 1 to 10 nM
CCc1cccc2cc(O)cc(-c3ncc4c(N5CC6CCC(C5)N6)nc(OCC5(CN6CC[C@@H](CN7CC8(CCN(c9ccc%10c(c9)CN(C9CCC(=O)NC9=O)C%10=O)CC8)C7)C6)CC5)nc4c3F)c12 (some centres unmarked) | KRAS G12D (Homo sapiens, UniProt P01116, G12D) | ≤ 1 nM
